system: OVCAR-4 ovarian; test: NCI tumour cell line growth inhibition, 48 h
MEASUREMENT TYPE: GI50

Record excerpt, results attached:
COc1ccc(/C(C#N)=C/c2ccccc2OC)cc1 ... 32.5 µM
COc1ccc2c(c1)cn1c3ccc(O)cc3nc(N)c21 ... 1.57 µM
OC(c1cc(-c2ccccc2)nc2ccc(Cl)cc12)C1CCCCN1 (stereo not given) ... 3.24 µM
CCCCCCCCCCCCCCCCN1CC2CCCCC2C1 (stereo not given) ... 11.9 µM
Nc1nc2c(c3ncncc13)C(c1cccc(C(F)(F)F)c1)Cc1ncncc1-2 (stereo not given) ... 10.8 µM

Please give GI50, item by item, for the list that follows.
1. CC(CCC(=O)O)[C@H]1CCC2[C@@H]3CC[C@@H]4CC(O)CC[C@]4(C)C3CC[C@@]21C (stereo not given in full)
2. O=c1cc(-c2ccccc2)[nH]c2ccccc12
3. C=CCOc1cccc(/C=C2\SC(=Nc3ccc(O)cc3)NC2=O)c1
4. O=C1c2cccnc2C(=O)c2nc3cc(N4CCN(C5CC5)CC4)ccc3nc21
5. COc1ccc(-c2ccc(/C=N/n3c(COc4ccc(Cl)cc4Cl)nn(CN4CCOCC4)c3=S)o2)c([N+](=O)[O-])c1

Solution:
1: 31.4 µM; 2: 0.949 µM; 3: 2.15 µM; 4: 1.27 µM; 5: 21.7 µM

###

Could you please report measured TGI for the items listed next?
system: EKVX NSCLC; test: NCI tumour cell line growth inhibition, 48 h

Record excerpt, results attached:
CCOC(=O)C(=[N+]=[N-])C(=O)C1(C(=O)OCC)CCN(C(=O)c2ccccc2)C1=O (configuration not stated) ... > 100 µM
O=CC(=C(I)I)c1ccccc1 ... 36.9 µM
O=C(O)/C=C\C(=O)N1C/C(=C\c2ccccc2Cl)C(=O)/C(=C/c2ccccc2Cl)C1 ... 18.3 µM
Cc1ccc(-c2cn3ccnc3c(-c3ccc(Cl)cc3)n2)cc1 ... > 100 µM
O=[N+]([O-])C1C2C=CC(C2)[C@H]1c1ccco1 (some centres not stated) ... > 100 µM

Please give TGI, item by item, for the list that follows.
1. COc1ccc(OC)c(/C=C2\SC(=S)NC2=O)c1
2. N=c1oc2c(Cl)cc(Cl)cc2cc1C(=O)Nc1cccc2ccccc12

Solution:
1. 42.1 µM
2. > 74.3 µM

###

test system: OVCAR-8 ovarian; test: NCI tumour cell line growth inhibition, 48 h; in the data active = GI50 below about 0.43 µM; inactive = the rest
Select the matching outcome among active, inactive

CCCCC(CC)CN=C(N)NC(N)=NCCCCCCN=C(N)NC(N)=NCC(CC)CCCC (stereo not drawn) ... inactive
O=C(NCCO)Nc1ccc(-c2nc(N3CCOCC3)c3cccn3n2)cc1 ... active
Nc1ccccc1C#C/C=C\C#Cc1cccs1 ... inactive
CN(C)CCNc1c2c(c(NCCN(C)C)c3[nH]ccc13)C(=O)c1ccccc1C2=O ... inactive
CC#C[C@]1(O)CC[C@H]2[C@@H]3CCC4=CC(=O)CCC4=C3[C@@H](c3ccc4c(c3)OCO4)C[C@@]21C ... inactive

Exercise: What was the test verdict on `COc1ccc(-c2c3c(N)nc(-c4ccncc4)nc3nc3c2c(C)nn3-c2ccccc2)cc1` ?
Solution: inactive

Exercise: What was the test verdict on COc1ccc(/C=C2\CCCC3=C2N=C2SC(C)=NN2C3c2ccc(OC)c(OC)c2)cc1OC (stereo not drawn) ?
Solution: inactive

Exercise: What was the test verdict on `O=C1/C(=C\c2c[nH]c3ccccc23)c2ccccc2N1c1c(Cl)cccc1Cl` ?
Solution: inactive

###

tested on: OVCAR-3 ovarian; assay: NCI tumour cell line growth inhibition, 48 h
Could you please report measured TGI for the items listed next?

COc1ccc2nc(-c3cccs3)cc(C(O)CN3CCSCC3)c2c1 (stereo not drawn) ... > 100 µM

Please give TGI, item by item, for the list that follows.
1. CC(NNC(=O)c1ccncc1)c1ccc(F)cc1 (stereo not drawn)
2. CC1=Nc2ccccc2S/C1=C(/C)NNC(=O)C(N)=O
3. Cc1ccc(NC(=O)C(=O)C(C#N)c2ccccc2C)cc1C (stereo not drawn)
4. CC(=O)NC(CS/N=N/c1nc[nH]c1C(N)=O)C(=O)O (stereo not drawn)
5. Cn1cc(-c2ccc3occ(-c4cccc(-c5ccncc5)c4)c3n2)cn1
6. N#CCc1nc2ccccc2c(=O)[nH]1
7. Cc1csc(=S)n1OC(=O)NC1CCCCC1
8. NC(=O)N/N=C1\CCCCc2ccccc21

Solution:
1. > 100 µM
2. > 100 µM
3. > 100 µM
4. > 100 µM
5. > 100 µM
6. > 100 µM
7. > 100 µM
8. > 10 µM

Please give TGI, item by item, for the list that follows.
1. C[C@@H]1C[C@H]2CC[C@H](O2)[C@H](C)C(=O)O[C@@H](C)C[C@@H]2CC[C@@H](O2)[C@@H](C)C(=O)O[C@H](C)C[C@H]2CC[C@H](O2)[C@H](C)C(=O)O[C@@H](C)C[C@@H]2CC[C@@H](O2)[C@@H](C)C(=O)O1
2. CC(=O)N1C(Nc2ccccn2)CCN1c1ccccc1 (stereo not drawn)
3. O=C1/C(=C\c2c[nH]c3ccccc23)c2ccccc2N1c1c(Cl)cccc1Cl
4. CCC1NC(=O)C1NC(=O)OC (stereo not drawn)

Solution:
1. > 40.1 µM
2. > 10 µM
3. 3.78 µM
4. > 100 µM

###

Could you please report measured TGI for the items listed next?
system: A549 NSCLC; assay: NCI tumour cell line growth inhibition, 48 h

O=C(CN1CCOCC1)Nc1nc(-c2ccc(Cl)cc2)cs1 ... > 100 µM
Cc1[nH]ccc2c1[nH]c1cc(=O)ccc12 ... > 100 µM
COc1ccc(C2=Nc3ccccc3NC(=O)C2)cc1 ... > 100 µM
CC(C)c1cc(-c2n[nH]c(=O)n2-c2ccc3c(ccn3C)c2)c(O)cc1O ... > 71.3 µM
CC(=O)Nc1cc([As](=O)(O)O)ccc1O ... > 100 µM
O=C1c2ccccc2S(=O)(=O)c2c1cccc2[N+](=O)[O-] ... > 10 µM
O=Nc1c(O)cc(Nc2ccc(Br)cc2)c2ccccc12 ... 6.04 µM
COCCN(C(C)=O)C1CCC2(SCCS2)c2[nH]c3ccccc3c21 (stereo unspecified) ... > 100 µM
O=S(=O)(O)c1ccc(O)c2ncc(Cl)cc12 ... > 100 µM
COc1ccc(/C=C(/C#N)C(N)=O)cc1OC ... > 100 µM

Proceed to the following item.
Exercise: Given the entry `CCCNC1=C(C(=O)OCC)C(=O)CO1` , report its measured TGI.
Solution: > 100 µM

###

test system: HOP-18 NSCLC; assay: NCI tumour cell line growth inhibition, 48 h
MEASUREMENT TYPE: TGI

COc1ccc(C2=Nc3ccccc3NC(=O)C2)cc1 ... > 100 µM
C[C@H](OCc1ccccc1)C(=O)N1CCS(=O)(=O)N2CCC[C@H]2C1=O ... > 100 µM
Cc1cc(N(CCC#N)CCC#N)ccc1N=Nc1cccc(C(=O)O)c1 ... > 100 µM
CC1=Nc2ccccc2S/C1=C(/C)NNC(=O)C(N)=O ... > 100 µM
CCS(=O)(=O)Nc1ccc(Nc2c3ccccc3nc3ccccc23)c(OC)c1 ... 7.92 µM

Proceed to the following item.
Exercise: Give HOP-18 NSCLC TGI for `N#C/C(=C\c1ccc(O)c(O)c1)C(N)=S`
Solution: > 100 µM

###

Could you please report measured TGI for the items listed next?
test system: HCT-116 colon; assay: NCI tumour cell line growth inhibition, 48 h

Record excerpt, results attached:
O=C(/C=C/c1csc(-c2ccccc2)n1)NCc1ccc(C(=O)NCCc2ccccc2)cc1 ... > 100 µM
CN(C)C(=O)OC(Cn1cncn1)c1ccc(Cl)cc1Cl (stereo not drawn) ... > 100 µM
O=C(CSc1nnc(-c2ccc(N=Cc3ccc(Cl)cc3)cc2)o1)Nc1ccc(Cl)cc1Cl ... 38.1 µM
COc1cc(C=C2C(C)=NN(c3cccc(Cl)c3)C23SCC(=O)N3c2nc3ccccc3s2)ccc1O (stereo not drawn) ... 65.3 µM
CN(C)CC(=O)Nc1ccc(Cn2nnc3c2C(=O)c2nnn(Cc4ccc(NC(=O)CN(C)C)cc4)c2C3=O)cc1 ... 0.275 µM

Please give TGI, item by item, for the list that follows.
1. CC(=O)N1C(Nc2ccccn2)CCN1c1ccccc1 (stereo not drawn)
2. Cc1ccc(C2=Nc3cccc4cccc(c34)N2)cc1
3. COc1ccc2oc(=N)c(C(=O)NCc3ccccc3)cc2c1
4. CCN(CC)c1ccc(C(=O)c2ccccc2C(=O)O)c(O)c1
5. COc1ccc(/C(C#N)=C/c2ccccc2OC)cc1

Solution:
["> 10 µM", "> 100 µM", "> 100 µM", "> 100 µM", "> 100 µM"]

Please give TGI, item by item, for the list that follows.
1. Cc1ccc(N=Nc2c(O)c(C(=O)O)cc3ccccc23)cc1C
2. NCCn1c(=O)[nH]c(=O)[nH]c1=S

Solution:
["> 100 µM", "> 100 µM"]

Exercise: Given the entry `Cn1c(=O)c2c(nc(-n3nc(-c4ccc(Cl)cc4)cc3N)n2C)n(C)c1=O` , report its measured TGI.
Solution: > 100 µM

Where do the numbers come from? From PubChem BioAssay (NCI).
